The measured values listed here are drawn from patent US12344610B2.

Test system: HEK293 cells overexpressing APOL1 G2
Experiment: APOL1 G2 HEK293 cell rescue assay (reversal of cell death caused by overexpression of APOL1)
Format: cell-based
Details: Homo sapiens, HEK293, HEK293 overexpressing APOL1 G2; geometric mean of at least 2 assay runs; † = single assay run
readoutKind: pEC50
Field pEC50 (float): negative decimal logarithm of the concentration in molar.

Check out these entries, answers already filled in.
molecule | targetEntity | endpointValue
CS(=O)(=O)C1(c2ccc(OCCN3CCC4(CC3)C(=O)Nc3ccc(C#N)cc34)cc2)CCOCC1 | HEK293 cells overexpressing APOL1 G2 | 6.57
CC(C)(CO)c1ncc(OCCN2CCC3(CC2)C(=O)Nc2ccc(Cl)cc23)cn1 | HEK293 cells overexpressing APOL1 G2 | 6.96
CS(=O)(=O)c1ccc(OCCN2CCC3(CC2)C(=O)N(C2COC2)c2ccc(Cl)cc23)cc1 | HEK293 cells overexpressing APOL1 G2 | 6.63
C[C@]1(O)C[C@@H](n2cnc3cc(OCCN4CCC5(CC4)C(=O)Nc4ccc(Cl)cc45)cc(C#N)c32)C1 | HEK293 cells overexpressing APOL1 G2 | 7.83
CNC(=O)N1CCc2cc(OCCN3CCC4(CC3)C(=O)Nc3ccc(Cl)cc34)ccc2C1 | HEK293 cells overexpressing APOL1 G2 | 6.86
O=C1Nc2ccc(Cl)cc2C12CCN(CCOc1ccc(S(=O)(=O)C3(CO)CC3)cc1)CC2 | HEK293 cells overexpressing APOL1 G2 | 7.49

pEC50 in this record for CNC(=O)C1(S(=O)(=O)c2ccc(OCCN3CCC4(CC3)C(=O)Nc3ccc(Cl)cc34)cc2)CC1 : 7.37

pEC50 in this record for C[C@]1(O)C[C@@H](n2c(=O)cc(C(F)F)c3cc(OCCN4CCC5(CC4)C(=O)Nc4ccc(C(F)F)cc45)cnc32)C1 : 7.52

pEC50 in this record for CS(=O)(=O)C1(c2ccc(OCCN3CCC4(CC3)C(=O)Nc3ccc(Cl)cc34)cc2C(F)(F)F)COC1 : 7.67

pEC50 in this record for O=C1CCc2cc(OCCN3CCC4(CC3)C(=O)Nc3ccc(Cl)cc34)cnc2N1CCO : 7.39

pEC50 in this record for O=C1Nc2ccc(Cl)cc2C12CCN(CCOc1ccc3nccnc3c1)CC2 : 6.78
